The reader will find reported max response values listed item by item below.
Experiment notes: Cycloheximide Counterscreen for Small Molecule Inhibitors of Shiga Toxin; further: read at 38.3 µM for the half of the compounds with a filed dose; 0% is about no effect
Experimental setup: cell reporter, cycloheximide protein synthesis inhibition counterscreen; active compounds read high
About 37,000 (12%) of roughly 300,000 compounds were called active. For the sample, actives were picked, then their nearest neighbours and some compounds at random.
Measured attribute: max response (%)

>>> df
                                    compound  measurement
 0  C/C(=N\NC(=O)NC1CCCCC1)c1ccc(OC(F)F)cc1OC(F)F         9.08
 1  CC(C(=O)Nc1ccc(F)c(F)c1F)N1CCCCCC1 (stereo unspecified)        -2.23
 2  COC(=O)C(NC(C)=O)(Nc1nc2c(s1)CCCC2)C(F)(F)F (stereo unspecified)        -2.42
 3    O=C(CSc1nnnn1C1CCCC1)Nc1ccc2c(c1)OCCO2         20.7
 4  Cc1ccc(-n2c(SCC(=O)Nc3ccc4c(c3)OCO4)nnc2-c2ccoc2C)cc1        -6.42
 5               Oc1ccc(Br)cc1/C=N/Nc1ccccn1         41.6
 6  O=C(N/C(=C\c1ccc([N+](=O)[O-])cc1)C(=O)N1CCCCC1)c1ccco1        -1.29
 7  CCN(CC)CCn1c(/N=C/c2cc(Br)ccc2O)nc2ccccc21         8.52
 8  CCn1c(SCC(=O)Nc2ccc3c(c2)OCCO3)nc2c(c1=O)SC(C)C2 (stereo unspecified)        -2.67
 9          Fc1ccc2nc(Nc3nc4c(s3)CCCC4)sc2c1         40.4
10  C=CCn1c(SCC(=O)NCC2CCCO2)nc2sc(C)c(C)c2c1=O (stereo unspecified)        -2.05

Every entry's value here was drawn from PubChem BioAssay AID2314.
